- System: Colon carcinoma cell
- experimental protocol: Cytostatic activity against human Colon carcinoma cells incubated for 48 hrs by SRB assay
- Assay type: functional
Label N if TGI falls below 5 µM; label Y in every other case.

>  <structure>
O=C1Nc2cc(Cl)ccc2/C1=C\c1cccc(/C=C2/C(=O)Nc3cc(Cl)ccc32)c1

>  <class>
N

$$$$
>  <structure>
CC(C)(C)c1cc(/C=C2/C(=O)Nc3ccc(F)cc32)c(O)c(/C=C2/C(=O)Nc3ccc(F)cc32)c1

>  <class>
Y

$$$$
>  <structure>
O=C1Nc2cccc(F)c2/C1=C\c1cccc(/C=C2/C(=O)Nc3cccc(F)c32)c1

>  <class>
N

$$$$
>  <structure>
COc1cc2c(c(OC)c1OC)/C(=C\c1ccc3ccc4ccc(/C=C5/C(=O)Nc6cc(OC)c(OC)c(OC)c65)nc4c3n1)C(=O)N2

>  <class>
Y

$$$$
>  <structure>
COc1cc2c(c(OC)c1OC)C(=Cc1cc(C(C)(C)C)cc(/C=C3\C(=O)Nc4cc(OC)c(OC)c(OC)c43)c1O)C(=O)N2

>  <class>
N

$$$$
>  <structure>
COc1cc2c(/C=C3/C(=O)N(C)c4cc5c(cc43)/C(=C\c3c(Cl)[nH]c4cc(C)c(OC)cc34)C(=O)N5C)c(Cl)[nH]c2cc1C

>  <class>
N

$$$$
>  <structure>
Cc1cc2c(cc1O)/C(=C\c1cc(C(C)(C)C)cc(C=O)c1O)C(=O)N2

>  <class>
Y

$$$$
>  <structure>
COc1ccc2c(c1)/C(=C\c1cc(C(C)(C)C)cc(/C=C3/C(=O)N(C)c4ccc(OC)cc43)c1O)C(=O)N2C

>  <class>
N

$$$$
